# protocol_summary: Toxicity liver stage against HepG2, at 10uM
# Format: cell-based
# Parameters: test concentration 10 uM, cell line HepG2-A16-CD81EGFP
# measurement_context: human, HepG2-A16-CD81EGFP cells; read-out: INHIBITION
Can you tell me cytotoxicity at 10 µM for the items I'm about to list?
Numeric only. Scale: %

// query Give its cytotoxicity at 10 µM value. Item: CCn1ncc2c1CN(C(=O)Cc1ccccn1)CC2COC (configuration not stated)
// result -70.7

// query Also CN1CCC2(CC1)CN(C(=O)c1ccncc1)Cc1ccccc12 ?
// result -86.3

// query Also Cc1nc[nH]c1CN1CCC(CNC(=O)c2cccc3cnccc23)C1 (configuration not stated) ?
// result -10.1

// query Also CCOCCN1C[C@@H]2CCCO[C@@H]2[C@H](NC(=O)c2cnoc2C)C1 ?
// result -119

// query Also Cc1ccc(F)c2c1N(C(=O)c1ccc(S(C)(=O)=O)cc1)CCC2 ?
// result 2.97

// query Also CCN(CCn1cccn1)Cc1nc(-c2ccccc2F)oc1C ?
// result 1.04

// query Also Cc1cc(C)c(-n2cc(CCO)cn2)cc1C ?
// result 0.334

// query Also CCc1ccsc1C(=O)N1CCN(CC(N)=O)CC1 ?
// result -1.1

// query Also Cn1cc(CN2CCC[C@]3(C[C@@H](Oc4ccccn4)CO3)C2)cn1 ?
// result 7.5

// query Also CCN(C(=O)Nc1cccnc1OC)C1CC1 ?
// result -9.11

// query Also C=C(C)COCCNC(=O)C1CCCN1C(C)=O (configuration not stated) ?
// result -10.7

// query Also CCn1cc(CN2CCCN(C(=O)Cc3ccc(C)nc3)CC2)cn1 ?
// result -3.87
